Cited source for all entries: ChEMBL document CHEMBL4732195

Tested on: Trichomonas vaginalis
EXPERIMENT_SUMMARY: Antimicrobial activity against Trichomonas vaginalis JH31A#4 trophozoites assessed as reduction in parasitic growth incubated for 24 hrs by resazurin dye based fluorescence assay
Format: functional, organism-based
CONDITION: JH31A#4, 24 h
pIC50: −log10 of the molar value.
Parameter pIC50: see the listing below.

CPD_SMILES	MEASUREMENT_TARGET	VALUE_OPERATOR	pIC50
NCCOc1nn(Cc2ccccc2)c2ccc([N+](=O)[O-])cc12	Trichomonas vaginalis	=	4.98
O=[N+]([O-])c1ccc2c(c1)c(OCCN1CCCCC1)nn2Cc1ccccc1	Trichomonas vaginalis	=	3.58
O=[N+]([O-])c1ccc2c(c1)c(OCCCCCN1CCCCC1)nn2Cc1ccccc1	Trichomonas vaginalis	=	4.16
O=C1c2ccccc2C(=O)N1CCOc1nn(Cc2ccccc2)c2ccc([N+](=O)[O-])cc12	Trichomonas vaginalis	=	3.55
O=[N+]([O-])c1ccc2c(c1)c(OCCCCCBr)nn2Cc1ccccc1	Trichomonas vaginalis	<	3.52
CN(C)CCCCCOc1nn(Cc2ccccc2)c2ccc([N+](=O)[O-])cc12	Trichomonas vaginalis	=	5.19
O=[N+]([O-])c1ccc2c(c1)c(OCCCN1CCCCC1)nn2Cc1ccccc1	Trichomonas vaginalis	=	3.98
